hERG current change (%, negative = inhibition) at 10uM values by entry
- System Tested: human ether-à-go-go-related gene (hERG) potassium channel (human);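 further: peak tail current of the secondary pulse compared with the same well before compound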
- Sequence (Q12809 whole entry, looked up): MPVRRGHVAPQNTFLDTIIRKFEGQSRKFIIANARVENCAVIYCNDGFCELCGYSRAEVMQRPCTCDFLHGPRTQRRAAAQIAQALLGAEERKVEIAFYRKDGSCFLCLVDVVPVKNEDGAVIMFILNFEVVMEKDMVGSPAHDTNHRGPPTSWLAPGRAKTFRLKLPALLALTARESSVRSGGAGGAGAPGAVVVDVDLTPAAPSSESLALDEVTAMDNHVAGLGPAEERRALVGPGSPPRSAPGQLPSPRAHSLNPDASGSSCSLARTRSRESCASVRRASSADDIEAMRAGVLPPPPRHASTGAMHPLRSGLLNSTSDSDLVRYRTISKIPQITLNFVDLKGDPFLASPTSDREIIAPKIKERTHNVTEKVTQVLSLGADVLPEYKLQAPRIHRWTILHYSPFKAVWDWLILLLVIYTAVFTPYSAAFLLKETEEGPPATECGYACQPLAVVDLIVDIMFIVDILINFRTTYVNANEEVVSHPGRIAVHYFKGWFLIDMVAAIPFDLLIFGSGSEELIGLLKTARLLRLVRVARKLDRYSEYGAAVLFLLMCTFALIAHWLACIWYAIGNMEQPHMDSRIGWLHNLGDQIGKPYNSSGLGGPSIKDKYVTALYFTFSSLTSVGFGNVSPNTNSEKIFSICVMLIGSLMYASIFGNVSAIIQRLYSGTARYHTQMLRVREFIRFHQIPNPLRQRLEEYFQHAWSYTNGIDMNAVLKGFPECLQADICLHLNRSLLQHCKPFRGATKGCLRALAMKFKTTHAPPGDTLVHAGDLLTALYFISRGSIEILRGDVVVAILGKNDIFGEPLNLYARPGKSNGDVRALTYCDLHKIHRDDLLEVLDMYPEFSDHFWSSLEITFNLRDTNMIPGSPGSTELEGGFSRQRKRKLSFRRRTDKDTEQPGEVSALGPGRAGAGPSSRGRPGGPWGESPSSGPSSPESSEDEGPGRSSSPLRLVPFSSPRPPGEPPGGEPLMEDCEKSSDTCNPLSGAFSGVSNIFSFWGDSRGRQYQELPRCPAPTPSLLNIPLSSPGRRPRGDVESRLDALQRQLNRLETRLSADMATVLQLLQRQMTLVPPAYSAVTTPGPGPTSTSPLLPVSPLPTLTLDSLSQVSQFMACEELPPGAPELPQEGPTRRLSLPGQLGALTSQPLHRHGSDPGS
- Experiment Summary: primary screen, population patch clamp on CHO cells stably expressing hERG; higher = less effect of the substance
About 14,000 (4.5%) of roughly 310,000 compounds showed an effect of 50% or more. Effects have a minus sign here. Shown is part of a subset that was picked to be rich in strong results.
Endpoint Name: hERG current change (%, negative = inhibition) at 10uM (%)

INSERT INTO assay_data (compound, assay_value) VALUES
  ('COc1ccc(CN(CCN)C2CC(C)N(C)CC2C)cc1.Cl (centres unmarked)', 7.07),
  ('Cc1csc(C(C)NC(=O)c2ccc(OC3CCN(CCc4ccccc4)CC3)cc2)n1 (centres unmarked)', -66.2),
  ('CC(NC(=O)c1ccc(OC2CCN(Cc3ccccn3)CC2)cc1)c1nccs1 (centres unmarked)', -10.3),
  ('CC(C)N1CCN(C(=O)c2ccc(OC3CCN(CCc4ccccc4)CC3)cc2)CC1', -0.0142),
  ('COc1ccc(CN(C(=O)c2ccco2)C2CCS(=O)(=O)C2)cc1 (centres unmarked)', -1.27);
